- Tested on: Staphylococcus aureus
- procedure.text: Antibacterial activity against methicillin-resistant Staphylococcus aureus by microdilution broth method
- Type: functional
test.readout: MIC (µg/mL)
Write the answer as a number in µg/mL, unit excluded.

input: Recorded MIC for O=C1O[C@@H](Cn2ccnn2)CN1c1ccc(N2CCNCC2)c(F)c1 , please?
output: 1

input: Recorded MIC for O=C1O[C@@H](Cn2ccnn2)CN1c1ccc(N2CCN(S(=O)(=O)c3ccc(C(F)(F)F)cc3)CC2)c(F)c1 , please?
output: 1

input: Recorded MIC for O=C1O[C@@H](Cn2ccnn2)CN1c1ccc(N2CCN(S(=O)(=O)c3ccc(F)cc3)CC2)c(F)c1 , please?
output: 1

input: Recorded MIC for Cc1ccc(S(=O)(=O)N2CCN(c3ccc(N4C[C@H](Cn5ccnn5)OC4=O)cc3F)CC2)cc1 , please?
output: 1

input: Recorded MIC for COc1ccc(S(=O)(=O)N2CCN(c3ccc(N4C[C@H](Cn5ccnn5)OC4=O)cc3F)CC2)cc1 , please?
output: 0.5

input: Recorded MIC for O=C1O[C@@H](Cn2ccnn2)CN1c1ccc(N2CCN(S(=O)(=O)c3cccc(F)c3)CC2)c(F)c1 , please?
output: 0.25

input: Recorded MIC for O=C1O[C@@H](Cn2ccnn2)CN1c1ccc(N2CCN(S(=O)(=O)c3ccc(F)cc3F)CC2)c(F)c1 , please?
output: 2

input: Recorded MIC for O=C1O[C@@H](Cn2ccnn2)CN1c1ccc(N2CCN(S(=O)(=O)c3ccc([N+](=O)[O-])cc3)CC2)c(F)c1 , please?
output: 1
